The reported measurements were obtained from patent US20250340543A1.

Listed here: items and their measured inhibition at 10 µM.
systemUnderTest: GPR84 (Homo sapiens (Human), UniProt Q9NQS5)
Sequence (Q9NQS5 whole entry): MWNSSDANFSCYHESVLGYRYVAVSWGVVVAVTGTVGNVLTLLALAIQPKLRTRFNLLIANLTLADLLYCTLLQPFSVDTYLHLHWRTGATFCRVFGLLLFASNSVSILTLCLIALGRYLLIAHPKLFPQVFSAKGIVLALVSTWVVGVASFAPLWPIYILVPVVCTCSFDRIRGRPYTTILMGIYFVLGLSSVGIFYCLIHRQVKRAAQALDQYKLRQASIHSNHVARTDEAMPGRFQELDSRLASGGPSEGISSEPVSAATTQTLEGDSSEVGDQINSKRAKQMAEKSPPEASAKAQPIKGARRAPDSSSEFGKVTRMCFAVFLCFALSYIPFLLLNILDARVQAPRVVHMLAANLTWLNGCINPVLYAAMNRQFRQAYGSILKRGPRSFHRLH
procedureText: Gai biosensor BRET assay (GPR84-mediated activation of Gai, antagonist mode against agonist ZQ-16)
Format: cell-based
conditionsUsed: compound tested at 10 μM (concentration code D)
readoutName: inhibition at 10 µM

{"columns": ["compound", "systemUnderTest", "readoutValue"],
 "data": [
  ["Cc1cc(OC[C@@H]2COCCO2)cc(=O)n1C(C)c1ccc(C#CC2CC2)cn1 (some centres unmarked)", "GPR84 (Homo sapiens (Human), UniProt Q9NQS5)", "< 25%"],
  ["Cc1cc(OCc2ncccn2)cc(=O)n1Cc1cccc(C#CCNc2ccccc2)c1", "GPR84 (Homo sapiens (Human), UniProt Q9NQS5)", "< 25%"],
  ["Cc1cc(OC[C@@H]2COCCO2)cc(=O)n1Cc1cccc(C#CC2CC2)c1", "GPR84 (Homo sapiens (Human), UniProt Q9NQS5)", "25 to 50%"],
  ["Cc1cc(OCc2ncccn2)cc(=O)n1Cc1cccc(C#CC2CC2)c1", "GPR84 (Homo sapiens (Human), UniProt Q9NQS5)", "< 25%"],
  ["Cc1cc(C#CC2CC2)ccc1-c1cncc(OCC2COCCO2)c1 (centres unmarked)", "GPR84 (Homo sapiens (Human), UniProt Q9NQS5)", "25 to 50%"],
  ["Cc1cc(OCc2ncccn2)cc(=O)n1[C@@H](C)Cc1cccc(C#CC2CC2)c1 (stereo in doubt)", "GPR84 (Homo sapiens (Human), UniProt Q9NQS5)", "< 25%"],
  ["Cc1cc(OCc2ccccn2)ccc1-c1cc(OCC2COc3ncccc3O2)cc(=O)[nH]1 (centres unmarked)", "GPR84 (Homo sapiens (Human), UniProt Q9NQS5)", "25 to 50%"],
  ["Cc1cc(OCC2COCCO2)cc(=O)n1Cc1cccc(OCc2ccccc2)c1 (centres unmarked)", "GPR84 (Homo sapiens (Human), UniProt Q9NQS5)", "< 25%"]
]}
